Target: Der p 1 (Dermatophagoides pteronyssinus, UniProt P08176)
Sequence (P08176 99-320): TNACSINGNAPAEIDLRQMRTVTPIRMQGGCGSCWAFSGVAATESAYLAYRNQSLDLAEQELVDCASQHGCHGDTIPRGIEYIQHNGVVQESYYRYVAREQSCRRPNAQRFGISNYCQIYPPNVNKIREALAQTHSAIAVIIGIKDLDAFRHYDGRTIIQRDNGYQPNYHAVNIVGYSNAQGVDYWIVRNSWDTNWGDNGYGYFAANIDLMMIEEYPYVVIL
Assay: biochemical
Type: biochemical
Settings: mean ± SE
ASSAY_METRIC: IC50
Give the number first and the unit second.

Below are worked cases with known answers.
>  <MOLECULE>
CC(C)[C@H](NC(=O)[C@H](C)NC(=O)[C@@H](NC(=O)c1ccccc1)C(C)(C)C)C(=O)C(=O)NCc1ccc(C(F)(F)F)cc1 [Compound 40]

>  <TARGET_OR_SYSTEM>
Der p 1 (Dermatophagoides pteronyssinus, UniProt P08176)

>  <ASSAY_METRIC>
IC50

>  <VALUE_REPORTED>
47 nM

$$$$
>  <MOLECULE>
CC(C)[C@H](NC(=O)[C@H](C)NC(=O)[C@@H](NC(=O)c1ccnc2ccccc12)C(C)(C)C)C(=O)C(=O)NC1CCCCC1 [Compound 26]

>  <TARGET_OR_SYSTEM>
Der p 1 (Dermatophagoides pteronyssinus, UniProt P08176)

>  <ASSAY_METRIC>
IC50

>  <VALUE_REPORTED>
13 nM

$$$$
>  <MOLECULE>
C[C@H](NC(=O)[C@H](Cc1ccccc1)NC(=O)c1ccccc1)C(=O)N[C@H](C(=O)C(=O)NC1CCCCC1)C(C)(C)C [Compound 21]

>  <TARGET_OR_SYSTEM>
Der p 1 (Dermatophagoides pteronyssinus, UniProt P08176)

>  <ASSAY_METRIC>
IC50

>  <VALUE_REPORTED>
9170 nM

$$$$
>  <MOLECULE>
CC(C)[C@H](NC(=O)[C@H](C)NC(=O)[C@@H](NC(=O)c1ccccc1)C(C)(C)C)C(=O)C(=O)NCC(=O)N1CCN(C)CC1 [Compound 48]

>  <TARGET_OR_SYSTEM>
Der p 1 (Dermatophagoides pteronyssinus, UniProt P08176)

>  <ASSAY_METRIC>
IC50

>  <VALUE_REPORTED>
14 nM

$$$$
>  <MOLECULE>
CC(C)C(NC(=O)[C@H](C)NC(=O)[C@H](Cc1ccccc1)NC(=O)c1ccccc1)C(=O)C(=O)NC1CCOCC1 (mixture of isomers) [Compound 33]

>  <TARGET_OR_SYSTEM>
Der p 1 (Dermatophagoides pteronyssinus, UniProt P08176)

>  <ASSAY_METRIC>
IC50

>  <VALUE_REPORTED>
55 nM

$$$$

Req: # get_value(readout='IC50', item= CC(C)[C@H](NC(=O)[C@H](C)NC(=O)[C@H](Cc1ccccc1)NC(=O)c1ccccc1)C(=O)C(=O)NC1CCN(C)CC1 [Compound 34] )
Resp: 115 nM

Req: Name the reported IC50 value associated with the molecule CC(C)[C@H](NC(=O)[C@H](C)NC(=O)[C@@H](NC(=O)c1cccc2ccccc12)C(C)(C)C)C(=O)C(=O)NC1CCCCC1 [Compound 25]
Resp: 20 nM

Req: Consider the molecule shown here: CC(C)[C@H](NC(=O)[C@H](C)NC(=O)[C@H](Cc1ccccc1)NC(=O)c1ccccc1)C(=O)C(=O)NCC(=O)N1CCN(C(C)C)CC1 [Compound 49] What is its recorded IC50?
Resp: 4 nM

Req: Need IC50, item CC(C)[C@H](NC(=O)[C@H](C)NC(=O)[C@@H](NC(=O)c1ccccc1)C(C)(C)C)C(=O)C(=O)NC1CC1 [Compound 35]
Resp: 17 nM

Req: Entry CNC(=O)C(=O)[C@@H](NC(=O)[C@H](C)NC(=O)[C@@H](NC(=O)c1ccccc1)C(C)(C)C)C(C)C [Compound 37] : reported IC50 = ?
Resp: 24 nM
